# pKd per entry
- measured on: p53 Y220C mutant protein (amino acid residues 94-293) (Homo sapiens, UniProt P04637, Y220C)
- Construct: p53 Y220C mutant protein (amino acid residues 94-293)
- test details: Surface Plasmon Resonance (SPR) assay, p53 Y220C Kd_kinetic
- condition notes: multi-cycle kinetics, 16 or 20 °C, pH 7.5, 1:1 binding model
pKd: −log10 of the molar value.

Past entries and their recorded results:
1) CN1CC[C@@H](Nc2cccn3c(SC(F)(F)F)c(-c4noc(CNC(=O)c5ccc6c(c5)NC(=O)CN6C)n4)cc23)[C@@H](F)C1
> 8.00
2) CN1CC[C@@H](Nc2cccn3c(SC(F)(F)F)c(-c4noc(CNC(=O)C5CC5)n4)cc23)[C@@H](F)C1
> 8.00

Could you now consider this next compound?
Ask | Sample CN1CC[C@@H](Nc2cccn3c(SC(F)(F)F)c(-c4noc(CNC(=O)c5ccn(C(C)(C)C)c5)n4)cc23)[C@@H](F)C1 — what was its pKd?
Reply | > 8.00

Entry source: patent US20260347353A1
